Reported values of apparent KD of MS2 coat protein for individual entries
Tested on: MS2 coat protein
Assay: apparent KD of MS2 coat protein; higher = weaker reporter binding
Details: Eterna round: R107; input ligand: none
# value in nM; strip the unit string

INSERT INTO results (sequence_chain, quantity_name, reported_value) VALUES
  ('CCUAUGCAGUCGGCCGCCACUGAACAUGAGGAUCACCCAUGUAAUUAAAAUUAAGAUCCUGAAAUCAGGACCGGGACUGUAUAGG [Ex Tryptophan B 4]', 'apparent KD of MS2 coat protein', 1520),
  ('GGACUAACCUGAAGGAGCGGCGCGCAGAAACUGCAAAUUCCUCCACACGAGGAUCACCCGUGUCAGGUAGGUCGCAGGUUAGUCG [ArgBX 28]', 'apparent KD of MS2 coat protein', 12.1);

Query AUUCAGAGAUCACAUGAGGAUCACCCAUGUCGAGGACCGGUACGGCCGCCACUCGCGGCGGUGAAAAUAGAUACAAAGUAUCUAU [Ex_TrypA - Vienna approves #2] yields apparent KD of MS2 coat protein of 50

Query UCCUCCUCCGCAAGGAGGAGGAGUUGCGAUACCAGCCCGGAAACGGGCCCUUGGCAGCGCACAUGAGGAUCACCCAUGUCAUGUU [#1 Exclusion - Theophylline A Attempt #8 (HarryS)] yields apparent KD of MS2 coat protein of 18.1

Query CGGCCCUCACUUGAGGAACACCCAAGUGAUACCAGCCUGGAAACAGGCCCUUGGCAGCACUAGGUCAUCAAAGAUGACCAAGCCG [TheoAX 29 #OpenEnded #AlternativeMS2] yields apparent KD of MS2 coat protein of 23.8

Query UGUAUGUGAUCUGAUACCAGCGAUGAUAACCUGAGGAUCACCCUGGUAUGGCGAAAGCCUCGCCCUUGGCAGCAGAUCGCAUACU yields apparent KD of MS2 coat protein of 747
